Experiment: Solubility enhancement of zotarolimus with select excipients in PBS
Format: physicochemical
Settings: PBS with 5% w/w Tween 20, aqueous with cosolvent or surfactant or cyclodextrin; Tween 20 5% w/w in PBS, n = 3
endpointLabel: solubility
// return the numeric value with its unit appended

Consider the compound shown here: `CO[C@H]1C[C@@H]2CC[C@@H](C)[C@@](O)(O2)C(=O)C(=O)N2CCCC[C@H]2C(=O)O[C@H]([C@H](C)C[C@@H]2CC[C@H](n3cnnn3)[C@H](OC)C2)CC(=O)[C@H](C)/C=C(\C)[C@@H](O)[C@@H](OC)C(=O)[C@H](C)C[C@H](C)/C=C/C=C/C=C/1C` What is its recorded solubility?
732 µg/mL

====

Test: Solubility enhancement of zotarolimus with select excipients in PBS
Format: physicochemical
Details: PBS with 5% w/w PEG 400, aqueous with cosolvent or surfactant or cyclodextrin; PEG 400 5% w/w in PBS, n = 3
endpointLabel: solubility (µg/mL)
Response body: numeric value in µg/mL, unit text excluded.

Consider the compound shown here: `CO[C@H]1C[C@@H]2CC[C@@H](C)[C@@](O)(O2)C(=O)C(=O)N2CCCC[C@H]2C(=O)O[C@H]([C@H](C)C[C@@H]2CC[C@H](n3cnnn3)[C@H](OC)C2)CC(=O)[C@H](C)/C=C(\C)[C@@H](O)[C@@H](OC)C(=O)[C@H](C)C[C@H](C)/C=C/C=C/C=C/1C` What is its recorded solubility?
31.5

====

Assay: Solubility enhancement of zotarolimus with select excipients in PBS
Format: physicochemical
Settings: PBS with 5% w/w Vitamin E TPGS, aqueous with cosolvent or surfactant or cyclodextrin; Vitamin E TPGS 5% w/w in PBS, n = 3
endpointLabel: solubility
// return the numeric value with its unit appended

Consider the molecule shown here: CO[C@H]1C[C@@H]2CC[C@@H](C)[C@@](O)(O2)C(=O)C(=O)N2CCCC[C@H]2C(=O)O[C@H]([C@H](C)C[C@@H]2CC[C@H](n3cnnn3)[C@H](OC)C2)CC(=O)[C@H](C)/C=C(\C)[C@@H](O)[C@@H](OC)C(=O)[C@H](C)C[C@H](C)/C=C/C=C/C=C/1C [Zotarolimus, zotarolimus] What is its recorded solubility?
512 µg/mL

====

Test: Solubility enhancement of zotarolimus with select excipients in PBS
Type: physicochemical
Settings: PBS with 5% w/w glycerol, aqueous with cosolvent or surfactant or cyclodextrin; Glycerol 5% w/w in PBS, n = 3
endpointLabel: solubility (µg/mL)
Response body: numeric value in µg/mL, unit text excluded.

Consider the compound shown here: `CO[C@H]1C[C@@H]2CC[C@@H](C)[C@@](O)(O2)C(=O)C(=O)N2CCCC[C@H]2C(=O)O[C@H]([C@H](C)C[C@@H]2CC[C@H](n3cnnn3)[C@H](OC)C2)CC(=O)[C@H](C)/C=C(\C)[C@@H](O)[C@@H](OC)C(=O)[C@H](C)C[C@H](C)/C=C/C=C/C=C/1C` What is its recorded solubility?
43.2

====

Test: Solubility enhancement of zotarolimus with select excipients in PBS
Format: physicochemical
Conditions: PBS with 5% w/w PVP C-17, aqueous with cosolvent or surfactant or cyclodextrin; PVP C-17 5% w/w in PBS, n = 3
endpointLabel: solubility (µg/mL)
Response body: numeric value in µg/mL, unit text excluded.

Consider the molecule shown here: CO[C@H]1C[C@@H]2CC[C@@H](C)[C@@](O)(O2)C(=O)C(=O)N2CCCC[C@H]2C(=O)O[C@H]([C@H](C)C[C@@H]2CC[C@H](n3cnnn3)[C@H](OC)C2)CC(=O)[C@H](C)/C=C(\C)[C@@H](O)[C@@H](OC)C(=O)[C@H](C)C[C@H](C)/C=C/C=C/C=C/1C [Zotarolimus, zotarolimus] What is its recorded solubility?
5.6
